target: T1, CTLA4-Fc (Fitzgerald, #30R-CD152) (human, UniProt P16410 38-152); test: SPR (Biacore), immobilised CTLA4-Fc
T1 construct: Bought; also called human CTLA-4 (Fitzgerald); biotinylated-CTLA4; not shown: Fc part of the bought fusion, not described
T1 sequence (P16410 38-152 limits assumed): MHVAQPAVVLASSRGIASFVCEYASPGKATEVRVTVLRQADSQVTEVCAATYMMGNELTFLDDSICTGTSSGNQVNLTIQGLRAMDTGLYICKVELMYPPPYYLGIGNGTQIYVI
Could you please report measured Kd for the items listed next?
Answers are plain numbers, in nM.

CD86 mutant 1046 (ligand, Variant of the CD86 extracellular domain) APLKIQAYFNETADLPCQFANSQNQSLSELVVFWQDQENLVLNEVYLGKEKFDSVDSKYMGRTSFDSDSWTLRLHNLQIEDKGIYQCIIHHKKPSGMVKIHQMDSELSVLA : 6

Moving on to the next binder.
Which Kd is listed for CD86 mutant 1042 (ligand, Variant of the CD86 extracellular domain) APLKIQAYFNETADLPCQFANSQNLSLSELVVFWQDQENLVLNEVYLGKEIFDSVSSKYMGRTSFDSDSWTLRLHNLQIKDKGIYQCIIHHKKPSGMVKIHQMDSELSVLA ? 25
